Recorded MIC for the following molecules
system: Klebsiella pneumoniae; test: In vitro antibacterial activity against gram-negative Klebsiella pneumoniae; type: functional
I only need the number, in µg/mL, no unit after it.

molecule	endpoint_result
CC(C)NCc1c(F)cc2c(=O)c(C(=O)O)cn(C3CC3)c2c1F.Cl	0.098
O=C(O)c1cn(C2CC2)c2c(F)c(N3CCNCC3)c(F)cc2c1=O	0.049

The molecule listed as CCn1cc(C(=O)O)c(=O)c2cc(F)c(N3CCNC(C)C3)c(F)c21 (centres undefined) has a reported MIC of 0.098

The molecule listed as `Cl.NCc1c(F)cc2c(=O)c(C(=O)O)cn(C3CC3)c2c1F` has a reported MIC of 0.098
